Documented IC50 across a set of molecules
- Tested on: tubulin (αβ-tubulin; colchicine site in β-subunit)
- Measurement Description: [3H]colchicine competition on purified tubulin
- Format: biochemical

{"Molecule": "O=c1cc(-c2ccccc2)[nH]c2ccc3c(ccn3CC3CC3)c12 [MG-2477]", "Output Unit": "µM", "IC50": 0.9}
{"Molecule": "COc1ccc(/C=C\\c2cc(OC)c(OC)c(OC)c2)cc1O [combretastatin A-4]", "Output Unit": "µM", "IC50": 1.2}
